Below, each entry is listed alongside its reported Insect Toxicity LC50, BAW.
test system: Beet Armyworm; assay: Insect toxicity feeding bioassay, BAW; assay type: in vivo; settings: in vivo
Answer in ppm, number only, no unit symbol.

INSERT INTO measurements (compound, unit_spec, readout_number) VALUES
  ('CCc1ccc(C(=O)NN2C(c3cc(C)cc(C)c3)=NOC2(C)C)cc1', 'ppm', 23),
  ('CCc1c(OC)cccc1C(=O)NN1C(c2ccccc2)=NOC1(C)CC (stereo not drawn)', 'ppm', 47);

Supply reported Insect Toxicity LC50, BAW belonging to this compound: CCC1(C)ON=C(c2cc(C)cc(C)c2)N1NC(=O)c1cc2ccccc2s1 (stereo not drawn)
87
